experiment: Pharmacokinetics after single oral administration to rats; type: in vivo, rat; settings: male, Wistar, rat, plasma, oral, 200 mg/kg, Table S8, 200 mg/kg PO, male Wistar rats, 8 h, mean of Rat#13-18
measurement.label: concentration at 8 h (ng/mL)
Give your result in ng/mL as a bare value.

Quick one: concentration at 8 h of COc1cc(Nc2ncnc(Nc3cc4c(cn3)NC(=O)C(C)(C)O4)n2)cc(OC)c1OC ?
206

* * *

experiment: Tissue distribution after single oral administration in rats; type: in vivo, rat; settings: male, Wistar, rat, bone, po, 100 mg/kg, bone, 100 mg/kg PO, male Wistar rats, 2 h, mean; read-out: Bone concentration, Mean
measurement.label: concentration at 2 h (ng/mL)
Give your result in ng/mL as a bare value.

Quick one: concentration at 2 h of COc1cc(Nc2ncnc(Nc3cc4c(cn3)NC(=O)C(C)(C)O4)n2)cc(OC)c1OC ?
445
